Target: human adenosine A2A receptor (Homo sapiens, UniProt P29274)
Construct: expressed in transfected cells; host or cells: CHO cells, Semliki Forest virus expression system; washed membrane preparation
Sequence (P29274 whole entry): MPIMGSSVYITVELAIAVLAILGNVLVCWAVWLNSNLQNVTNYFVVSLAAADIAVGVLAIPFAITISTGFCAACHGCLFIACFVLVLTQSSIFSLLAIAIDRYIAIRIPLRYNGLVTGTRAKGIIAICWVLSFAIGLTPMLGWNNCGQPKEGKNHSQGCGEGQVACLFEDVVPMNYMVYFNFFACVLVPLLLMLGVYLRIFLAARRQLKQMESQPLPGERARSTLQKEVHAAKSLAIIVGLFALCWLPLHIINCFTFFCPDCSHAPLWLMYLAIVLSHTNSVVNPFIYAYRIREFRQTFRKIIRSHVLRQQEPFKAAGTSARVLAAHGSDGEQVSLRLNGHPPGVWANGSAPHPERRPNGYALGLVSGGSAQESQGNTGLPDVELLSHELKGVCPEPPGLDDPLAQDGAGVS
Test: [3H]-SCH-58261 binding assay at the human adenosine A2A receptor
Details: [3H]-SCH-58261 (1 nM), membranes of CHO cells recombinantly expressing the human A2A receptor; Ki by Cheng-Prussoff; read-out: hA2ApKi (converted)
Rule for this label: True means Ki is less than 30 nM; False means Ki is at least 30 nM.

A selection of reference data follows.
COc1ccc(-c2cc(N)n3nc(-c4ccco4)nc3c2)cn1 = True
Nc1cc(-c2ccc(Cl)c(Cl)c2)cc2nc(C3=CCCO3)nn12 = True
Cc1cc(-c2cc(N)n3nc(-c4ccccn4)nc3c2)ccn1 = False
Nc1cc(-c2cccc(F)c2)cc2nc(C3=CCCO3)nn12 = True
COc1ccc(-c2cc(N)n3nc(-c4ccco4)nc3c2)cc1OC = True
Cc1cccc(-c2cc(N)n3nc(C4=CCCO4)nc3c2)c1 = False

Input line: Below 30 nM on Ki? Entry CCc1cc(-c2cc(N)n3nc(-c4ccccn4)nc3c2)ccn1
Output line: True

Input line: Here's an entry: Cc1cccc(-c2cc(N)n3nc(-c4ccco4)nc3c2)c1 . Is its Ki below 30 nM?
Output line: True

Input line: Dear reviewer, please state whether Nc1cc(-c2ccnc(F)c2)cc2nc(-c3ccco3)nn12 has Ki strictly beneath 30 nM.
Output line: True

---

Provide the recorded melting point for the entries that follow.

Nc1cc(-c2ccncc2)cc2nc(-c3ccccc3)nn12 [Example 22] = 207 to 210 °C
Nc1cc(-c2cccnc2)cc2nc(-c3ccccc3)nn12 [Example 24] = 201 to 203 °C

Quick one: give me melting point for each item below, same order please.
1. Nc1cc(-c2cc(Cl)cc(Cl)c2)cc2nc(-c3ccco3)nn12 [Example 5]
2. Cc1cc(-c2cc(N)n3nc(-c4ccco4)nc3c2)ccn1 [Example 7]
3. Nc1cc(-c2ccccc2)cc2nc(-c3ccccc3)nn12 [Example 25]
4. CCc1cc(-c2cc(N)n3nc(-c4ccco4)nc3c2)ccn1 [Example 8]
5. Nc1cc(-c2ccccn2)cc2nc(-c3ccccc3)nn12 [Example 23]
6. Cc1cc(-c2nc3cc(-c4ccncc4)cc(N)n3n2)oc1C [Example 16]

Output line:
257 to 260 °C
100 to 101 °C
214 to 216 °C
184 to 186 °C
278 to 280 °C
275 to 277 °C
